B1: Protein piccolo, residues 1058 to 1114; numbered along this chain, Q9Y6V0 (parent)
chain: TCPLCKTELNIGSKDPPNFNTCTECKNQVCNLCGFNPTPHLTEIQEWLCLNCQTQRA

variants of: B1; experiment: abundance fitness (aPCA) (normalised: wild type 0, dead -1); higher = more abundant; growth selection in yeast, the domain comes from the species named; conditions: Homo sapiens
MEASUREMENT LABEL: abundance fitness
One number for each entry.

Guide cases for abundance fitness, answers given:
VARIANT | MEASUREMENT LABEL | VAL
L50E | abundance fitness | 0.157
K14H | abundance fitness | 0.056
G12K | abundance fitness | -0.216
C22K | abundance fitness | -0.818
P39L | abundance fitness | -0.001

Each of the following entries comes with a recorded value; kindly state abundance fitness for each.
1. N27I
2. P16F
3. H40K
4. T42Y

Ans.
[0.004, 0.024, -0.06, -0.301]

Report abundance fitness for every entry below.
1. C2H
2. Q28I
3. C2A
4. T21H
5. E8H
6. L4A
7. T7I

Ans.
[-0.834, -0.579, -1.3, 0.013, -0.479, 0.087, -0.31]
